Each recorded value in this set is attributed to patent US20230095569A1.

biological target: human Claudin18.2 (CLDN18.2) (human, UniProt P56856 1-261); assay: cell-based or functional assay
Reported Max CDC induced tumor cell killing (% of control) values for a set of binders

Take a look at these entries with their results.
[[record]]
binder = "chAb24 (antibody, V domains shown) VH: EVKLVESGGGLVKPGGSLKLSCAGSGFTFSSYTMSWVRQTPEKRLEWVATITIGVNIYYLDSVKGRFTISRDNAKNTLYLQMNSLRSEDTALYYCTRLGQTQRNAMDYWGQGTSVTVSS VL: DIVMTQSPTSLSVSAGEKVTMTCKSSQSLFNSGNQKNYLAWYQEKPGQPPKLLIYGASTRESGVPDRFTGSGSGTDFTLTISSVQAEDLAVYYCQNVHFYPFTFGAGTKLEL"
result = "70.7 % of control"

[[record]]
binder = "chAb20 (antibody, V domains shown) VH: EVMLVESGGGLVKPGGSLKLSCVASGFTFSSYTMSWVRQTPEKRLEWVATIIGGYGNTYYSDSVKGRITISRDSAKNTLYLQMISLRSEDTALYYCTRLGQTQRNAMDYWGQGTSVTVSS VL: DILMTQSPSSLSVSAGEKVTMNCKSSQSLLNSGNQKNYLAWYQQKPGQPPKLLIYGASTRESGVPDRFTGSGSGTDFTLTISSVQAEDLAVYYCQNDYYYPFTFGAGTKLEL"
result = "73 % of control"

[[record]]
binder = "chAb17 (antibody, V domains shown) VH: QVQLKESGPGLVAPSQSLSITCTVSGFSLTSYAISWVRQPPGKGLEWLGEIWTGGGTNYNSALKSRLSISKDNSKSQVFLKMNSLQTDDTARYYCGRLSYGNSLDYWGQGTTLTVSS VL: DIVMTQSPSSLTVTAGEKVTMSCKSSQSLLNSGNQKNYLTWYQQKPGQPPKLLIYWASTRESGVPDRFTGSGSGTDFTLTVSSVQAEDLAVYYCQNNFIYPLTFGPGTKLELK"
result = "70.8 % of control"

[[record]]
binder = "chAb30 (antibody, V domains shown) VH: QVQLKESGPGLVAPSQSLSITCTVSGFSLTKFGVNWVRQPPGKGLEWLGAIWGDGSTNYHSALISRLSINKDNSKSQVFLKLSSLQNVDTATYYCAKSGYGNAMDYWGHGTSVTVSS VL: DIVMTQSPSSLTVTTGEKVTLNCKSSQSLLNSGNLKNYLTWYQQRPGQPPKLLIYWASTRESGVPYRFTGSGSGTDFTLTISNVQAEDLAIYYCQNDYFFPFTFGSGTKLEIK"
result = "76.1 % of control"

[[record]]
binder = "chAb08 (antibody, V domains shown) VH: QVQLQQPGAELVKPGASVKLSCKASGYTFTSYLLHWVKQRPGQGLEWIGMIHPNGGSTNYNEKFKTKATLTVDKSSSTAYMQLSSLTSEDSAVYYCAPVYFGNSFAYWGQGTLVTVSA VL: DIVMTQSPSSLTVTAGEKVTMSCKSSQSLLNSGNQKNYLTWYQQKPGQPPKLLIYWASTRESGVPDRFTGSGSGTDFTLTISSVQAEDLAVYYCQNDYYYPFTFGSGTKLEKK"
result = "68.4 % of control"

[[record]]
binder = "IMAB362 (Zolbetuximab) (antibody, V domains shown) VH: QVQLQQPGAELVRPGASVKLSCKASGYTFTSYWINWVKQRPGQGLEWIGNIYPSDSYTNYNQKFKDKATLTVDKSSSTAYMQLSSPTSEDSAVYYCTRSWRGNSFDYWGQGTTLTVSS VL: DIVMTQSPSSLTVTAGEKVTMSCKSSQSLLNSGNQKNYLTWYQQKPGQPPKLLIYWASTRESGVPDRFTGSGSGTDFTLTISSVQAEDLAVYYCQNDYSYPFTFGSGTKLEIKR"
result = "52.5 % of control"


[ask] // query Max CDC induced tumor cell killing (% of control) value for entry chAb25 (antibody, V domains shown) VH: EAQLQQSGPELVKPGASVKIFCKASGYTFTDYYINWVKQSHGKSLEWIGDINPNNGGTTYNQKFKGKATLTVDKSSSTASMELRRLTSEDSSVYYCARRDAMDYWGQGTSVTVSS VL: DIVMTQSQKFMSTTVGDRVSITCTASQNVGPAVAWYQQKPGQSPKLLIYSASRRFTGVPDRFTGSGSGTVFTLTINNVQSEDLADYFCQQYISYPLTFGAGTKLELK
[reply] 72.9 % of control

[ask] Entry chAb06 (antibody, V domains shown) VH: EVQLVASGGGLVKPGGSLKLSCAASGITFRSYAMSWVRQTPEKRLEWVATITDGGSYIFYPDNVKGRFTISGDHAKNNLYLQMSHLKSEDTALYFCVRLYYGNSFAYWGQGTLVTVSA VL: DIVMTQSPSSLTVTAGEKVTLNCKSSQSLFNSGNQKNYLTWYQQKPGQPPKLLIYWASTRESGVPDRFTGSGSGTDFTLTFSSVQAEDLAVYYCQNAYIYPFTFGSGTKLEIK has what Max CDC induced tumor cell killing (% of control)?
[reply] 75.4 % of control

[ask] Can you look up the measured Max CDC induced tumor cell killing (% of control) of chAb31 (antibody, V domains shown) VH: QIQLAQSGPELKKPGETVKISCKASGYSFTNYGMNWVKQAPGKGLKWMGWINTYSGETKYADDFKGRFDFSLETSARTAYLQIKNLKIEDTATYFCARRDAMDYWGQGTSVTVSS VL: DIVMTQAAPSVPVTPGESVSISCRSSKSLLNSNGNTYLYWFLQRPGQSPQLLIYRMSNLASGVPDRFSGSGSGTAFTLRISRVEAEDVGVYYCMQHLEFPFTFGSGTKLEIK for me?
[reply] 60.7 % of control

[ask] # get_value(readout='Max CDC induced tumor cell killing (% of control)', item= chAb10 (antibody, V domains shown) VH: EVMLVESGGGLVKPGGSLKLSCAASGFTFSSYTMSWVRQTPEKRLEWVATISVIGGNTYYVDSVKGRFTISRDKAKNTLYLQMSSLRSEDTALYYCARLGQTQRNAMDYWGQGTSVTVSS VL: DIVMTQSPSSLSVSAGEKVTMSCKSSQSLLNSGNQKNYLAWYQQKPGQPPKLLIYGASTRESGVPDRFTGSGSGTDFTLTISSVQAEDLAVYYCQNDYSYPLTFGAGTKLELK )
[reply] 82.7 % of control
